Source listed as ChEMBL document CHEMBL3507680.

# assay explanation: Human HepG2 cell viability assay in 384 well format
# Format: toxicity, cell-based
# Set-up: dose 125 nL, time 70.5 hour; concentration not given beside the values
# protocol conditions: HepG2 cells, read-out: Inhibition
Quick list: cytotoxicity at 70.5 h per entry.
measured attribute: cytotoxicity at 70.5 h (%)

compound=CNC(=O)c1cc2c(nc1N(C)C)CCN(S(=O)(=O)N(C)C)CC2 measured_attribute="cytotoxicity at 70.5 h" result_number=4.98
compound=CCCn1cc(C(=O)n2nc(C)cc2C)c(S(=O)(=O)N2CCSCC2)n1 measured_attribute="cytotoxicity at 70.5 h" result_number=-7.23
compound="COCCc1noc(CN2CCCCC2Cn2nc(C)cc2C)n1 (stereo not drawn)" measured_attribute="cytotoxicity at 70.5 h" result_number=-1.86
compound="Cc1nc(O)cc(CCNC(=O)C2CC(=O)N(CC(C)C)C2)n1 (stereo not drawn)" measured_attribute="cytotoxicity at 70.5 h" result_number=-8.39
compound="CCCn1ncc(C(=O)N2CCCC(OCc3ccccn3)C2)c1C (stereo not drawn)" measured_attribute="cytotoxicity at 70.5 h" result_number=-4.73
compound=CN(c1cccc(C#N)c1)S(=O)(=O)c1cc(C(=O)O)ccc1Cl measured_attribute="cytotoxicity at 70.5 h" result_number=-12.6
compound="CC(NC(=O)c1cccc(CCC(C)(C)O)c1)c1nnc(N)s1 (stereo not drawn)" measured_attribute="cytotoxicity at 70.5 h" result_number=30.7
compound="CC(C)c1nc(C2CCCN(C(=O)c3ccc4nccn4c3)C2)no1 (stereo not drawn)" measured_attribute="cytotoxicity at 70.5 h" result_number=-3.59
compound=COc1c(CNCc2ccc(N(C)C)nc2)c(C(C)C)nn1C measured_attribute="cytotoxicity at 70.5 h" result_number=1.68
compound="CCCC1CCCN(Cc2csc(-c3ncccn3)n2)CC1 (stereo not drawn)" measured_attribute="cytotoxicity at 70.5 h" result_number=-1.51
compound=CC(C)NC(=O)[C@@H](NC(=O)N1CCN(c2ccc(Cl)cc2)CC1)C(C)C measured_attribute="cytotoxicity at 70.5 h" result_number=6.91
compound=CC(C)(CN1C[C@H](Nc2ncccn2)[C@@H](C2CC2)C1)N1CCOCC1 measured_attribute="cytotoxicity at 70.5 h" result_number=-11.6
compound=O=C(C1CCOCC1)N1CCC(O)(Cn2ccc3ccncc32)CC1 measured_attribute="cytotoxicity at 70.5 h" result_number=-6.06
compound="COCc1nc(C(=O)N2CCCC2Cn2cc(C)cn2)cs1 (stereo not drawn)" measured_attribute="cytotoxicity at 70.5 h" result_number=-6.43
compound="CC(C)(C)OC(=O)N1CCC(C(=O)NCc2ccccc2)C1 (stereo not drawn)" measured_attribute="cytotoxicity at 70.5 h" result_number=7.59
compound=Cc1cccc(C(=O)N2Cc3ccccc3C3(CCN(C)CC3)C2)n1 measured_attribute="cytotoxicity at 70.5 h" result_number=7.65
compound="COC1CN(C(=O)NCC(N)=O)CCC(=O)N(C)c2ccccc21 (stereo not drawn)" measured_attribute="cytotoxicity at 70.5 h" result_number=-7.69
compound=CCOCCC(=O)N1CC(=O)Nc2cc(Br)ccc21 measured_attribute="cytotoxicity at 70.5 h" result_number=22
compound=CNC(=O)Cc1ccccc1NC(=O)NCc1ccc(SC)cc1 measured_attribute="cytotoxicity at 70.5 h" result_number=19.8
compound="Cc1ncc(C(=O)N2CCCCC2c2nc3cc(F)ccc3[nH]2)c(O)n1 (stereo not drawn)" measured_attribute="cytotoxicity at 70.5 h" result_number=-20
compound="CCNC(=O)c1ccnc(N2CCCC(COc3ccccc3C)C2)c1 (stereo not drawn)" measured_attribute="cytotoxicity at 70.5 h" result_number=-21.9
compound=COCCN1CCc2ccc(=O)n(Cc3csc(C)n3)c2CC1 measured_attribute="cytotoxicity at 70.5 h" result_number=-6.35
compound=Cc1occc1C(=O)N1CC[C@@H](N2CCOCC2)[C@@H]1Cc1ccccc1 measured_attribute="cytotoxicity at 70.5 h" result_number=-7.85
